Each recorded value in this set is attributed to paper PMC10786891.

Biological target: T1, EsCas13d, nuclease-dead (Eubacterium siraeum, UniProt B0MS50, R295A;H300A;R849A;H854A)
T1 sequence: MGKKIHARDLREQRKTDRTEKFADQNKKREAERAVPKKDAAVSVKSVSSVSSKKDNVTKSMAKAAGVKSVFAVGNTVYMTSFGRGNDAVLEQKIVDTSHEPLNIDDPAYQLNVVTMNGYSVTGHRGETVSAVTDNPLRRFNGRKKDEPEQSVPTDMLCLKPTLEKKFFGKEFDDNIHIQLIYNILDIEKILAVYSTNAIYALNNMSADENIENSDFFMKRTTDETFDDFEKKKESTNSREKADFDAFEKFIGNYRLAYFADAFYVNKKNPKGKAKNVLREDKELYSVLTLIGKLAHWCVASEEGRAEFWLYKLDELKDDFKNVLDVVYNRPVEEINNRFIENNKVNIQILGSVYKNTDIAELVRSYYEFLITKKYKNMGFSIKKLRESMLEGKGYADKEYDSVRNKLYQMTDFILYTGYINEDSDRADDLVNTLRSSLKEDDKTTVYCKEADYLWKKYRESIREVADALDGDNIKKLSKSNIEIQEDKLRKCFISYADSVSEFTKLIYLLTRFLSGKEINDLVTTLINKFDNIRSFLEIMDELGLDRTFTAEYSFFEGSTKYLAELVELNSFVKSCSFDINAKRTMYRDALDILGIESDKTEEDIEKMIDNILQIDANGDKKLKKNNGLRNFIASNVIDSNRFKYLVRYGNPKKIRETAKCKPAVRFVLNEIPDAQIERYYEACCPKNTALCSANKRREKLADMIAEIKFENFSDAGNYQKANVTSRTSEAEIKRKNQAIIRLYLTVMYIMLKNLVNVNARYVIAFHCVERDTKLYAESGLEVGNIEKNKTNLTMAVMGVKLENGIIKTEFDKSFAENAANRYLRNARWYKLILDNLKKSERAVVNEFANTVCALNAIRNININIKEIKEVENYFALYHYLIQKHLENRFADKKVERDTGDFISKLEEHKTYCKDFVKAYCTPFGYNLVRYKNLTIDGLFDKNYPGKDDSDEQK
Assay: crRNA (strand 1, pre-loaded); Mg2+; 40 mM Tris-HCl pH 7.5, 150 mM NaCl, 6 mM MgCl2, 1 mM DTT, 0.1% Tween-20, 0.2 mg/ml BSA; 25 C; 10 min per concentration, then washed
Settings: tags: His6-TwinStrep-SUMO cleaved; N-terminal SNAP kept (SNAP-Surface 488); label: 3' end held by stalled T7 RNA polymerase
parameter.measured: Kd (nM)
Numbers only, in nM.

Worked examples follow.
binder	parameter.measured	unit.tag	readout.value
target 1 insU 3' of 20,insC 3' of 3 (mixed) RNA 1: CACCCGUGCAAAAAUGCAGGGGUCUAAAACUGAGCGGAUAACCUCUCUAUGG RNA 2: GGGAAUGGAUCCACAUCUACGAAUUCGUACCAUUAGAGAGGUUAUCCGCUCCACCGAGAUCGGAAGAGCACACGU	Kd	nM	12.9
target 1 insA 3' of 21,insA 3' of 2 (mixed) RNA 1: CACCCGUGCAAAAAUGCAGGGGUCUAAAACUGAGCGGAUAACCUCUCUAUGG RNA 2: GGGAAUGGAUCCACAUCUACGAAUUCGUACCAAUAGAGAGGUUAUCCGCUCAACCGAGAUCGGAAGAGCACACGU	Kd	nM	17.7
target 1 A9G,G17A (mixed) RNA 1: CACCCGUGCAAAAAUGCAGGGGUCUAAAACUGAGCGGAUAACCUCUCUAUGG RNA 2: GGGAAUGGAUCCACAUCUACGAAUUCGUACCAUAAAGAGGUUGUCCGCUCACCGAGAUCGGAAGAGCACACGU	Kd	nM	57

Okay, now this binder:
Query: Given the binder target 1 insG 3' of 22,insA 3' of 10 (mixed) RNA 1: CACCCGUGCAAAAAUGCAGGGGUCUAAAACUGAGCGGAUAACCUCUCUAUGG RNA 2: GGGAAUGGAUCCACAUCUACGAAUUCGUACGCAUAGAGAGGUUAAUCCGCUCACCGAGAUCGGAAGAGCACACGU , what is its reported Kd?
Response: 25
